Target: SCRIB_3, Q14160
Sequence (Q14160 999-1103): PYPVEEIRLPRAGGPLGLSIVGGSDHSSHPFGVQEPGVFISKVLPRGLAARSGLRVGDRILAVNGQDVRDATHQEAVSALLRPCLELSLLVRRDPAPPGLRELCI
Assay: holdup assay
Parameters: key: below the threshold = too weak to quantify, mostly under pKd 3.1 to 4
Conditions: plain residues with an end cap or a label only (N-terminal biotin on a linker: ahx)
Measured endpoint: pKd

**Q:** Tell us which pKd value is on record for SAPATLSSRA [PDLIM2, Q96JY6]
**A:** below the threshold

**Q:** Tell me pKd reported for SKKNELFSNL [NHERF1, O14745]
**A:** below the threshold

**Q:** Answer with the recorded pKd of ADENEQVSAV [RAPGEF6, Q8TEU7] only.
**A:** below the threshold
